TEST_TARGET: CDK2 (Homo sapiens, UniProt P24941)
Construct: endogenous in cells; host or cells: MDA-MB-231
ASSAY_NOTES: CDK protein degradation activity (Western blotting), CDK2
Format: cell-based
ASSAY_CONTEXT: MDA-MB-231 cells, 1 μM, 16 hours, Western blot
MEASUREMENT_KIND: Enzyme degradation CDK2 (% remaining) @ 1 μM

1) Cc1cccc(C(=O)NC2CC(n3cnc4c(Nc5ccc(N6CCN(C7CC8(CCN(C(=O)COc9ccc([C@@H]%10CCC(=O)NC%10=O)cc9)CC8)C7)CC6)cc5)ncnc43)C2)n1 (some centres unmarked) :: 40/40/40%
2) Cc1cccc(C(=O)NC2CC(n3cnc4c(NCc5cccc(N6CCN(CC7CCN(C(=O)CNc8ccc9c(c8)C(=O)N([C@H]8CCC(=O)NC8=O)C9=O)CC7)CC6)c5)ncnc43)C2)n1 (some centres unmarked) :: 60%
3) O=C1CCC(N2C(=O)c3cc(F)c(N4CCC(N5CCN(c6ccc(Nc7ncnc8c7ncn8[C@H]7C[C@@H](NC(=O)Cc8ccccc8)C7)cc6)CC5)CC4)cc3C2=O)C(=O)N1 (some centres unmarked) :: 10%
4) O=C1CC[C@H](N2C(=O)c3ccc(N4CCN(CC5CCN(c6ccc(Nc7ncnc8c7ncn8C7CC(NC(=O)Cc8ccccc8)C7)cc6)CC5)CC4)cc3C2=O)C(=O)N1 (some centres unmarked) :: 0%
5) Cc1cccc(C(=O)N[C@H]2C[C@H](n3cnc4c(NCC5CCN(C(=O)CCCCCNC(=O)CNc6ccc7c(c6)C(=O)N([C@@H]6CCC(=O)NC6=O)C7=O)CC5)ncnc43)C2)n1 (stereo in doubt) :: 100%
